Test: in vitro
Assay type: in vitro ADME
Settings: human, Caco-2
# efflux ratio at 90 min >= 0.7 gives yes (1), anything below gives no (0)

Does the reported efflux ratio at 90 min for CC(C)CC(=O)OC[C@H]1O[C@@](C#N)(c2ccc3c(N)ncnn23)[C@H](O)[C@@H]1OC(=O)C(C)C fall at or above the 0.7 mark?
yes (1)

Does the reported efflux ratio at 90 min for CC(C)CC(=O)OC[C@H]1O[C@@](C#N)(c2ccc3c(N)ncnn23)[C@H](O)[C@@H]1OC(=O)CC1CCCCC1 fall at or above the 0.7 mark?
no (0)

Does the reported efflux ratio at 90 min for CNc1nc(N)nc2c1ncn2[C@@H]1O[C@H](COC(=O)C(C)C)[C@@H](OC(=O)CC(C)C)[C@@]1(C)F fall at or above the 0.7 mark?
no (0)

Does the reported efflux ratio at 90 min for N#C[C@@]1(c2ccc3c(N)ncnn23)O[C@H](COC(=O)CC2CCC2)[C@@H](O)[C@H]1O fall at or above the 0.7 mark?
yes (1)

Does the reported efflux ratio at 90 min for C[C@H](C(=O)OC[C@H]1O[C@@](C#N)(c2ccc3c(N)ncnn23)[C@H](O)[C@@H]1O)C1CCCCC1 fall at or above the 0.7 mark?
yes (1)

Data origin, for the record: patent US12102648B2
